Entry source: the supplement of paper PMC13380429

Test system: Caco-2
Assay: cell viability relative to DMSO; higher = less toxic
Details: 72 h; 10 nM
recorded-metric: cell viability (%)
Enter your answer as a number in %; do not include the unit.

Look over these answered cases.
CC1=C(/C=C/C(C)=C/C=C/C(C)=C/C(=O)Nc2ccc(O)cc2)C(C)(C)CCC1 [fenretinide]
103
O=C(c1c(F)ccc(NS(=O)(=O)N2CC[C@@H](F)C2)c1F)c1c[nH]c2ncc(-c3cnc(C4CC4)nc3)cc12 [PLX8394]
99.2
CC(C)(C=O)Cc1cc(C(C)(C)C)c(O)c(C(C)(C)C)c1
97.6
CC(=O)c1c(C)c2cnc(Nc3ccc(N4CCNCC4)cn3)nc2n(C2CCCC2)c1=O [palbociclib]
90.6
CC(C)CCNC(=O)[C@H](CC(C)C)NC(=O)[C@H]1O[C@@H]1C(=O)O [loxistatin-acid]
95.6
O=S(=O)(O)c1ccc(-c2c3nc(c(-c4ccc(S(=O)(=O)O)cc4)c4ccc([nH]4)c(-c4ccc(S(=O)(=O)O)cc4)c4nc(c(-c5ccc(S(=O)(=O)O)cc5)c5ccc2[nH]5)C=C4)C=C3)cc1 [TPPS4]
87.2
CCN(CC)C(=O)N[C@H]1C[C@@H]2c3cccc4[nH]cc(c34)C[C@H]2N(C)C1 [terguride]
93.3

cell viability lookup needed for COc1ccccc1C1(O)CCN(CCCn2c3ccccc3c3ccccc32)CC1 [NNC-05-2090] , thanks.
91.7

----------
Test system: HepG2
Test: cell viability relative to DMSO; higher = less toxic
Settings: 72 h; 10000 nM
The reader will find reported cell viability values listed item by item below.
Enter your answer as a number in %; do not include the unit.

Look over these answered cases.
CC(=O)N[C@H]1[C@H]([C@H](O)[C@H](O)CO)OC(C(=O)O)=C[C@@H]1NC(=N)N [zanamivir]
107
c1ccc([C@@H]2C[C@H]2NC2CCNCC2)cc1 [GSK-LSD-1]
97.2
CC(=O)OC[C@H](N)C(=O)O [O-acetyl-L-serine]
95.2

cell viability lookup needed for COc1cc(CCc2cc(NC(=O)c3ccc(N4CC(C)NC(C)C4)cc3)n[nH]2)cc(OC)c1 (stereo not given) [AZD4547] , thanks.
37

cell viability lookup needed for O=[N+]([O-])c1cncn1CCN1CCOCC1 [nimorazole] , thanks.
117

cell viability lookup needed for Cc1c(C)c2c(c(C)c1O)CCC(C)(C)O2 [APC-100] , thanks.
99.2

cell viability lookup needed for COc1ccc2cc(-c3nc(-c4ccc([S+](C)[O-])cc4)[nH]c3-c3ccncc3)ccc2c1 (stereo not given) [tie2-kinase-inhibitor] , thanks.
79.9

cell viability lookup needed for `OCCn1cc(-c2cnc3nnn(Cc4ccc5ncccc5c4)c3n2)cn1` , thanks.
74.9

cell viability lookup needed for COCCCN1CCC(NC(=O)c2cc(Cl)c(N)c3c2OCC3)CC1 [prucalopride] , thanks.
96.5

cell viability lookup needed for NC(N)=O [urea] , thanks.
94.2

----------
Test system: U2OS
Assay: cell viability relative to DMSO; higher = less toxic
Settings: 72 h; 10 nM
recorded-metric: cell viability (%)
Enter your answer as a number in %; do not include the unit.

Cc1c(C2CCN(CCc3ccccc3)CC2)noc1-c1ccc(Cl)cc1
98.7
CC(C)(C=O)Cc1cc(C(C)(C)C)c(O)c(C(C)(C)C)c1
103
C[C@@H](O)[C@@H]1NC(=O)[C@H](CCCCN)NC(=O)[C@@H](Cc2c[nH]c3ccccc23)NC(=O)[C@H](Cc2ccccc2)NC(=O)[C@@H](NC(=O)[C@H](N)Cc2ccccc2)CSSC[C@@H](C(=O)N[C@H](CO)[C@@H](C)O)NC1=O [octreotide]
101
CCOC(=O)c1cc2ccc(O)cc2oc1=O [YZ9]
94.7
Cc1ccccc1N1CCN(CCc2nnc3n2CCCC3)CC1 [dapiprazole]
105

cell viability lookup needed for CC(C)[C@@H](CN1CC[C@@](C)(c2cccc(O)c2)[C@@H](C)C1)NC(=O)[C@H]1Cc2ccc(O)cc2CN1 [JDTic] , thanks.
104

cell viability lookup needed for CC(C)Nc1cc(-c2c[nH]c(C(=O)N[C@H](CO)c3cccc(Cl)c3)c2)c(Cl)cn1 [BVD-523] , thanks.
101

cell viability lookup needed for O=S1(=O)c2cccc3cccc(c23)N1CCCN1CCN(c2ccc(F)cc2)CC1 [fananserin] , thanks.
102

cell viability lookup needed for O=S(=O)(O)NC1CCCCC1 [cyclamic-acid] , thanks.
100

cell viability lookup needed for Oc1cc(O)cc(/C=C/c2ccc(O)c(O)c2)c1 [piceatannol] , thanks.
98.2

cell viability lookup needed for O=CN1CCC(C(=O)NCCN2CCC(=C3c4ccccc4C=Cc4ccccc43)CC2)CC1 [AT-1015] , thanks.
97.4

cell viability lookup needed for COCC[n+]1c2c(n(Cc3cnccn3)c1C)C(=O)c1ccccc1C2=O [YM-155] , thanks.
44.3

cell viability lookup needed for `Cc1cc(CCC[C@H](CC(=O)NO)C(=O)N[C@H](C(=O)N[C@H](C)c2ccccc2)C(C)(C)C)ccc1-c1ccccc1` , thanks.
102

cell viability lookup needed for CC(C)CCNC(=O)[C@H](CC(C)C)NC(=O)[C@H]1O[C@@H]1C(=O)O [loxistatin-acid] , thanks.
98.7

cell viability lookup needed for C[n+]1ccccc1C=NO [pralidoxime] , thanks.
97.4

cell viability lookup needed for C[C@@H]1C[C@H]2[C@@H]3C[C@H](F)C4=CC(=O)C=C[C@]4(C)[C@@]3(F)[C@@H](O)C[C@]2(C)[C@@]1(O)C(=O)COC(=O)C(C)(C)C [flumethasone-pivalate] , thanks.
102

cell viability lookup needed for O=C(Nc1ccccc1C(=O)NC1CCCCNC1=O)c1cc2ccccc2s1 (configuration not stated) [ANA-12] , thanks.
101

----------
Test system: Vero E6
Assay: cell viability relative to DMSO; higher = less toxic
Conditions: 72 h; 10000 nM
recorded-metric: cell viability (%)
Enter your answer as a number in %; do not include the unit.

Cc1ccc(N2CCN(CC[C@H]3NC(=O)c4ccccc43)CC2)cc1C
111
Cc1c(C)c2c(c(C)c1O)CCC(C)(C)O2
102

# next compound below
cell viability lookup needed for `CCS(=O)(=O)N1CC(CC#N)(n2cc(-c3ncnc4[nH]ccc34)cn2)C1` , thanks.
101

----------
Test system: HepG2
Assay: drug sensitivity score (DSS) for viability; higher = more toxic; extreme values may be limits of the assay
Conditions: 72 h
recorded-metric: drug sensitivity score
Please state the value as a number alone, without comment.

COc1ccccc1C1(O)CCN(CCCn2c3ccccc3c3ccccc32)CC1 [NNC-05-2090]
3.2

drug sensitivity score lookup needed for CC[C@]1(O)C[C@@H]2CN(CCc3c([nH]c4ccccc34)[C@@](C(=O)OC)(c3cc4c(cc3OC)N(C)[C@H]3[C@@](O)(C(N)=O)[C@H](O)[C@]5(CC)C=CCN6CC[C@]43[C@@H]65)C2)C1 [vindesine] , thanks.
23.5

drug sensitivity score lookup needed for N[C@@H](CSC(c1ccccc1)(c1ccccc1)c1ccccc1)C(=O)O [S-trityl-L-cysteine] , thanks.
3.2

----------
Test system: Calu-3
Experiment: drug sensitivity score (DSS) for viability; higher = more toxic; extreme values may be limits of the assay
Conditions: 72 h
The reader will find reported drug sensitivity score values listed item by item below.
Please state the value as a number alone, without comment.

Look over these answered cases.
N[C@@H](Cc1ccc(O)cc1)C(=O)O [plovamer-acetate]
0
CN(C)C(=O)C(=O)c1cn(C)c2cc(Cl)c(C(=O)N3CCC(Cc4ccc(F)cc4)CC3)cc12
0

drug sensitivity score lookup needed for CC(=O)Nc1ccccc1 [acetanilide] , thanks.
0

drug sensitivity score lookup needed for O=C(C=Cc1ccccc1)NC(NC(=S)Nc1ccc(Cl)cc1)C(Cl)(Cl)Cl (stereo not drawn) , thanks.
0

drug sensitivity score lookup needed for `CCOC(=O)[C@H](CCc1ccccc1)N[C@@H](C)C(=O)N(CC(=O)O)C1Cc2ccccc2C1` , thanks.
0

drug sensitivity score lookup needed for `CC(C)(C=O)Cc1cc(C(C)(C)C)c(O)c(C(C)(C)C)c1` , thanks.
0

drug sensitivity score lookup needed for `CCCCC/C=C\C/C=C\C/C=C\C/C=C\CCCC(=O)Nc1ccc(O)cc1` , thanks.
0

drug sensitivity score lookup needed for COC(=O)C1=C(C)NC(C)=C([N+](=O)[O-])[C@@H]1c1ccccc1C(F)(F)F (racemic) [BAY-K-8644-(+/-)] , thanks.
0

drug sensitivity score lookup needed for `Nc1cc(C(Cl)=C(Cl)Cl)c(S(N)(=O)=O)cc1S(N)(=O)=O` , thanks.
0

drug sensitivity score lookup needed for Nc1ccc(S(N)(=O)=O)cc1 [sulfanilamide] , thanks.
0

----------
The reader will find reported drug-induced phospholipidosis values listed item by item below.
Test system: A549-ACE2
Experiment: drug-induced phospholipidosis relative to tamoxifen; higher = more phospholipidosis
Details: 0.3 µM; 24 h
# answer = value followed by unit

C[C@@H]1C[C@H]2[C@@H]3CCC4=CC(=O)C=C[C@]4(C)[C@@]3(Cl)[C@@H](O)C[C@]2(C)[C@@]1(OC(=O)c1ccco1)C(=O)CCl [MOMETASONE FUROATE]
10.4%
CC(=O)N(O)[C@@H]1c2cc(C#N)ccc2OC(C)(C)[C@H]1O
5.83%
C=C1C(=O)O[C@@H]2[C@H]3O[C@]3(C)CC/C=C(\C)CC[C@@H]12 [parthenolide-(alternate-stereo)]
1.51%

drug-induced phospholipidosis lookup needed for COc1cc(NC(C)CCCN)c2ncccc2c1 (centres undefined) [primaquine] , thanks.
2.39%
